system: ASPC1; assay: Cytotoxicity against human AsPC1 cells assessed as inhibition of cell proliferation after 48 hrs by XTT assay; assay type: functional, cell-based; conditions: ASPC1, 48 h, read-out: IC50
IC50 values by entry
parameter: IC50 (µM)

{"columns": ["structureString", "rel", "val"],
 "data": [
  ["COc1c(OCC(=O)O)cc2oc3cc(O)c(CC=C(C)C)c(O)c3c(=O)c2c1CC=C(C)C", "=", 52.8],
  ["COc1c(O)cc2oc3cc4c(c(O)c3c(=O)c2c1CC=C(C)C)CCC(C)(C)O4", ">", 100],
  ["COc1ccc2oc3cc(O)c(CCC(C)C)c(O)c3c(=O)c2c1CCC(C)C", ">", 100],
  ["C#CCOc1c(O)cc2oc3cc(O)c(CC=C(C)C)c(O)c3c(=O)c2c1CC=C(C)C", ">", 100],
  ["C=CCOc1cc2oc3cc(OCC=C)c(OC)c(CC=C(C)C)c3c(=O)c2c(OC)c1CC=C(C)C", "=", 25.8],
  ["COc1c(O)cc2oc3cc(O)c(CC=C(C)C)c(O)c3c(=O)c2c1CC=C(C)C", "=", 4.02],
  ["COc1c(OCC(=O)O)cc2oc3cc(OCC(=O)O)c(CC=C(C)C)c(O)c3c(=O)c2c1CC=C(C)C", ">", 100],
  ["COc1c(OS(=O)(=O)C(F)(F)F)cc2oc3cc(OS(=O)(=O)C(F)(F)F)c(CC=C(C)C)c(O)c3c(=O)c2c1CC=C(C)C", "=", 13.8],
  ["COc1c(O)cc2oc3c(N)c(O)c(CCC(C)C)c(O)c3c(=O)c2c1CCC(C)C", "=", 13]
]}
